Ref: paper PMC6054517

System: Bel7402
protocol.summary: MTT antiproliferative assay, Bel7402 cells
Type: cell-based, human
experimental.parameters: Homo sapiens, Bel-7402; MTT, 48 h, means ± SD, n = 3
Please go through the items and note down their IC50.
API: value field is a number in µM; no unit string.

Req: Returns the measured IC50 for the input compound. Input: CC1(C)CC[C@H](O)C23CO[C@](O)([C@@H](O)[C@H]12)[C@]12C(=O)/C(=C/c4ccc(NC(=O)c5ccccc5)cc4)[C@H](CC[C@@H]31)[C@H]2O [Compound 2u]
Resp: 7.35

Req: Same for CC(=O)Nc1ccc(/C=C2/C(=O)[C@]34[C@H](O)[C@H]2CC[C@H]3C23CO[C@]4(O)[C@@H](O)[C@@H]2C(C)(C)CC[C@@H]3O)cc1 [Compound 2t]
Resp: 14.6

Req: Same for COc1ccc(/C=C2/C(=O)[C@]34[C@H](O)[C@H]2CC[C@H]3C23CO[C@]4(O)[C@@H](O)[C@@H]2C(C)(C)CC[C@@H]3O)cc1OC [Compound 2m]
Resp: 3.15

Req: Same for O=c1[nH]cc(F)c(=O)[nH]1 [Compound 5-FU, 5-Fluorouracil, reference compound]
Resp: 21.3

Req: Same for COc1ccc(C=C2C(=O)C34C(O)C2CCC3C23COC4(O)C(O)C2C(C)(C)CCC3O)c(OC)c1 (stereo not drawn) [Compound 2l]
Resp: 2.41

Req: Same for CCCOc1ccc(/C=C2/C(=O)[C@]34[C@H](O)[C@H]2CC[C@H]3C23CO[C@]4(O)[C@@H](O)[C@@H]2C(C)(C)CC[C@@H]3O)cc1 [Compound 2o]
Resp: 6.54

Req: Same for Cc1ccc(/C=C2/C(=O)[C@]34[C@H](O)[C@H]2CC[C@H]3C23CO[C@]4(O)[C@@H](O)[C@@H]2C(C)(C)CC[C@@H]3O)cc1 [Compound 2h]
Resp: 11.3

Req: Same for CC1(C)CCC(O)C23COC(O)(C(O)C12)C12C(=O)C(=Cc4ccccc4)C(CCC31)C2O (stereo not drawn) [Compound 2a]
Resp: 4.97

Req: Same for CC(C)=CCOc1cccc(/C=C2/C(=O)[C@]34[C@H](O)[C@H]2CC[C@H]3C23CO[C@]4(O)[C@@H](O)[C@@H]2C(C)(C)CC[C@@H]3O)c1 [Compound 2q]
Resp: 8.62

Req: Same for CC1(C)CC[C@H](O)C23CO[C@](O)([C@@H](O)[C@H]12)[C@]12C(=O)/C(=C/c4ccc(N)cc4)[C@H](CC[C@@H]31)[C@H]2O [Compound 2s]
Resp: 7

Req: Same for COc1ccc(/C=C2/C(=O)[C@]34[C@H](O)[C@H]2CC[C@H]3C23CO[C@]4(O)[C@@H](O)[C@@H]2C(C)(C)CC[C@@H]3O)cc1 [Compound 2k]
Resp: 4.52

* * *

Test system: AGS
protocol.summary: MTT antiproliferative assay, AGS cells
Assay type: cell-based, human
experimental.parameters: Homo sapiens, AGS, 48 h, MTT, means ± SD, n = 3
Under this convention, label 1 denotes IC50 strictly below 10 µM and label 0 denotes IC50 at or above 10 µM.

Req: API: query returns whether the compound falls strictly under 10 µM in IC50. Query: COc1cc(/C=C2/C(=O)[C@]34[C@H](O)[C@H]2CC[C@H]3C23CO[C@]4(O)[C@@H](O)[C@@H]2C(C)(C)CC[C@@H]3O)cc(OC)c1OC [Compound 2n]
Resp: label 0

Req: Same for CC1(C)CC[C@H](O)C23CO[C@](O)([C@@H](O)[C@H]12)[C@]12C(=O)/C(=C/c4cccc(O)c4)[C@H](CC[C@@H]31)[C@H]2O [Compound 2w]
Resp: label 0

Req: Same for Cc1ccccc1/C=C1/C(=O)[C@]23[C@H](O)[C@H]1CC[C@H]2C12CO[C@]3(O)[C@@H](O)[C@@H]1C(C)(C)CC[C@@H]2O [Compound 2f]
Resp: label 0

Req: Same for CC1(C)CCC(O)C23COC(O)(C(O)C12)C12C(=O)C(=Cc4cccc(F)c4)C(CCC31)C2O (stereo not shown) [Compound 2b]
Resp: label 0

Req: Same for CC(C)=CCOc1cccc(/C=C2/C(=O)[C@]34[C@H](O)[C@H]2CC[C@H]3C23CO[C@]4(O)[C@@H](O)[C@@H]2C(C)(C)CC[C@@H]3O)c1 [Compound 2q]
Resp: label 1

Req: Same for CC1(C)CCC(O)C23COC(O)(C(O)C12)C12C(=O)C(=Cc4ccccc4)C(CCC31)C2O (stereo not shown) [Compound 2a]
Resp: label 0

Req: Same for CC1(C)CC[C@H](O)C23CO[C@](O)([C@@H](O)[C@H]12)[C@]12C(=O)/C(=C/c4ccc(Cl)cc4)[C@H](CC[C@@H]31)[C@H]2O [Compound 2e]
Resp: label 0

Req: Same for COc1ccc(/C=C2/C(=O)[C@]34[C@H](O)[C@H]2CC[C@H]3C23CO[C@]4(O)[C@@H](O)[C@@H]2C(C)(C)CC[C@@H]3O)cc1OC [Compound 2m]
Resp: label 0

Req: Same for CC1(C)CCC(O)C23COC(O)(C(O)C12)C12C(=O)C(=Cc4cccc(Cl)c4)C(CCC31)C2O (stereo not shown) [Compound 2d]
Resp: label 0

Req: Same for CC1(C)CC[C@H](O)C23CO[C@](O)([C@@H](O)[C@H]12)[C@]12C(=O)/C(=C/c4ccc(NC(=O)c5ccccc5)cc4)[C@H](CC[C@@H]31)[C@H]2O [Compound 2u]
Resp: label 0

Req: Same for CC1(C)CCC(O)C23COC(O)(C(O)C12)C12C(=O)C(=Cc4ccc5ccccc5c4)C(CCC31)C2O (stereo not shown) [Compound 2y]
Resp: label 0

Req: Same for COc1ccc(/C=C2/C(=O)[C@]34[C@H](O)[C@H]2CC[C@H]3C23CO[C@]4(O)[C@@H](O)[C@@H]2C(C)(C)CC[C@@H]3O)cc1 [Compound 2k]
Resp: label 1

Req: Same for O=c1[nH]cc(F)c(=O)[nH]1 [Compound 5-FU, 5-Fluorouracil, reference compound]
Resp: label 0

* * *

Test system: AGS
protocol.summary: MTT antiproliferative assay, AGS cells
Format: cell-based, human
experimental.parameters: MTT, 48 h, means ± SD, n = 3
value.kind: IC50 (µM)
API: value field is a number in µM; no unit string.

Req: Returns the measured IC50 for the input compound. Input: COc1ccc(C=C2C(=O)C34C(O)C2CCC3C23COC4(O)C(O)C2C(C)(C)CCC3O)c(OC)c1 (stereo not shown)
Resp: 5.85

* * *

Tested on: AGS
protocol.summary: MTT antiproliferative assay, AGS cells
Assay type: cell-based, human
experimental.parameters: Homo sapiens, AGS, 48 h, MTT, means ± SD, n = 3
value.kind: IC50 (µM)
API: value field is a number in µM; no unit string.

Req: Returns the measured IC50 for the input molecule. Input: Cc1ccc(/C=C2/C(=O)[C@]34[C@H](O)[C@H]2CC[C@H]3C23CO[C@]4(O)[C@@H](O)[C@@H]2C(C)(C)CC[C@@H]3O)cc1 [Compound 2h]
Resp: 5.26

Req: Same for CCCOc1ccc(/C=C2/C(=O)[C@]34[C@H](O)[C@H]2CC[C@H]3C23CO[C@]4(O)[C@@H](O)[C@@H]2C(C)(C)CC[C@@H]3O)cc1 [Compound 2o]
Resp: 10

Req: Same for COc1ccccc1/C=C1/C(=O)[C@]23[C@H](O)[C@H]1CC[C@H]2C12CO[C@]3(O)[C@@H](O)[C@@H]1C(C)(C)CC[C@@H]2O [Compound 2j]
Resp: 2.87

Req: Same for CC1(C)CC[C@H](O)C23CO[C@](O)([C@@H](O)[C@H]12)[C@]12C(=O)/C(=C/c4ccccc4O)[C@H](CC[C@@H]31)[C@H]2O [Compound 2v]
Resp: 30.3

* * *

Please go through the items and note down their IC50.
Tested on: Bel7402
protocol.summary: MTT antiproliferative assay, Bel7402 cells
Assay type: cell-based, human
experimental.parameters: Homo sapiens, Bel-7402; MTT, 48 h, means ± SD, n = 3
API: value field is a number in µM; no unit string.

Req: Returns the measured IC50 for the input molecule. Input: `COc1ccccc1/C=C1/C(=O)[C@]23[C@H](O)[C@H]1CC[C@H]2C12CO[C@]3(O)[C@@H](O)[C@@H]1C(C)(C)CC[C@@H]2O`
Resp: 3.56

Req: Same for `C=C1C(=O)[C@]23[C@H](O)[C@H]1CC[C@H]2[C@@]12CO[C@]3(O)[C@@H](O)[C@@H]1C(C)(C)CC[C@@H]2O`
Resp: 9.59

Req: Same for `Cc1cccc(/C=C2/C(=O)[C@]34[C@H](O)[C@H]2CC[C@H]3C23CO[C@]4(O)[C@@H](O)[C@@H]2C(C)(C)CC[C@@H]3O)c1`
Resp: 24.2

Req: Same for CC1(C)CCC(O)C23COC(O)(C(O)C12)C12C(=O)C(=Cc4cccc(Cl)c4)C(CCC31)C2O (stereo not drawn)
Resp: 16.9

Req: Same for `COc1cc(/C=C2/C(=O)[C@]34[C@H](O)[C@H]2CC[C@H]3C23CO[C@]4(O)[C@@H](O)[C@@H]2C(C)(C)CC[C@@H]3O)cc(OC)c1OC`
Resp: 14.6

Req: Same for `CC1(C)CC[C@H](O)C23CO[C@](O)([C@@H](O)[C@H]12)[C@]12C(=O)/C(=C/c4ccccc4O)[C@H](CC[C@@H]31)[C@H]2O`
Resp: 60.3
